Reference for the values: ChEMBL document CHEMBL1955806

# Tested on: HOP-92
# TEST_DESCRIPTION: Growth inhibition of human HOP92 cells at 10 uM after 48 hrs by sulforhodamine B assay
# Format: functional
# CONDITION: HOP-92, 48 h, read-out: GI
Measured inhibition of growth at 10 µM, listed per entry.

Some solved cases for reference:
*Q* Would you mind telling me what inhibition of growth at 10 µM value was observed for CO[C@H]1NC(=O)N(S(=O)(=O)c2c(C)cc(C)cc2C)[C@@H]1OC (relative stereo) ?
*A* 21.3%

*Q* # input compound: CO[C@@H]1[C@@H](OC)N(S(=O)(=O)c2ccc(Cl)cc2)C(=O)N1S(=O)(=O)c1ccc(Cl)cc1 (relative stereo) ; wanted: its inhibition of growth at 10 µM
*A* 49.9%

*Q* GET /values?readout=inhibition of growth at 10 µM&item= CO[C@@H]1[C@@H](OC)N(S(=O)(=O)c2ccccc2)C(=O)N1S(=O)(=O)c1ccccc1 (relative stereo)
*A* 29.9%

*Q* Reported inhibition of growth at 10 µM for COc1ccc(S(=O)(=O)N2C(=O)N(S(=O)(=O)c3ccc(OC)cc3)[C@H](OC)[C@H]2OC)cc1 (relative stereo) : what is it?
*A* 61%

*Q* Quick one: inhibition of growth at 10 µM of CO[C@@H]1[C@@H](OC)N(S(=O)(=O)c2ccc(Cl)cc2Cl)C(=O)N1S(=O)(=O)c1ccc(Cl)cc1Cl (relative stereo) ?
*A* 60.2%

***
*Q* Suppose we examine the compound CO[C@H]1NC(=O)N(S(=O)(=O)c2ccc(Cl)cc2)[C@@H]1OC (relative stereo) ; what inhibition of growth at 10 µM value has been reported?
*A* -13.6%

====

# System: IGROV-1
# TEST_DESCRIPTION: Growth inhibition of human IGROV1 cells at 10 uM after 48 hrs by sulforhodamine B assay
# Type: functional
# CONDITION: IGROV-1, 48 h, read-out: GI
Reported values of inhibition of growth at 10 µM for individual entries
// return numeric value only (unit: %, not printed)

*Q* Recall the recorded inhibition of growth at 10 µM for CO[C@@H]1[C@@H](OC)N(S(=O)(=O)c2ccccc2)C(=O)N1S(=O)(=O)c1ccccc1 (relative stereo) with IGROV-1 and state it.
*A* 3.06

*Q* Param readout= inhibition of growth at 10 µM; system= IGROV-1; entry= COc1ccc(S(=O)(=O)N2C(=O)N(S(=O)(=O)c3ccc(OC)cc3)[C@H](OC)[C@H]2OC)cc1 (relative stereo) ; returns value.
*A* 6.17

*Q* Look up inhibition of growth at 10 µM with IGROV-1 for this compound: CO[C@@H]1[C@@H](OC)N(S(=O)(=O)c2ccc(Cl)cc2)C(=O)N1S(=O)(=O)c1ccc(Cl)cc1 (relative stereo)
*A* 23.1

*Q* Please provide the recorded inhibition of growth at 10 µM for CO[C@H]1NC(=O)N(S(=O)(=O)c2c(C)cc(C)cc2C)[C@@H]1OC (relative stereo) , tested on IGROV-1.
*A* -7.61

*Q* So what inhibition of growth at 10 µM did COc1ccc(S(=O)(=O)N2C(=O)N(S(=O)(=O)c3ccc(OC)cc3OC)[C@H](OC)[C@H]2OC)c(OC)c1 (relative stereo) get with IGROV-1?
*A* 3.77

*Q* What is its inhibition of growth at 10 µM for IGROV-1? Entry: CO[C@@H]1[C@@H](OC)N(S(=O)(=O)c2ccc(Cl)cc2Cl)C(=O)N1S(=O)(=O)c1ccc(Cl)cc1Cl (relative stereo)
*A* 4.16

Continuing:
*Q* GET /values?readout=inhibition of growth at 10 µM&system=IGROV-1&item= CO[C@H]1NC(=O)N(S(=O)(=O)c2ccc(Cl)cc2)[C@@H]1OC (relative stereo)
*A* -23.9

*Q* Observed inhibition of growth at 10 µM on IGROV-1 for CO[C@H]1NC(=O)N(S(=O)(=O)c2ccc3ccccc3c2)[C@@H]1OC (relative stereo) , please.
*A* -25.5

*Q* Record COc1ccc(S(=O)(=O)N2C(=O)N[C@H](OC)[C@H]2OC)cc1 (relative stereo) : what is its inhibition of growth at 10 µM with IGROV-1?
*A* -20.7

*Q* # value lookup — system IGROV-1, readout inhibition of growth at 10 µM, item COc1ccc(S(=O)(=O)N2C(=O)N[C@H](OC)[C@H]2OC)c(OC)c1 (relative stereo)
*A* -13.9
